Test system: C. freundii ATCC8090
Assay: MIC against standard strains (Test Example 3)
Type: cell-based
Details: Citrobacter freundii; C. freundii ATCC8090 (Test Example 3); read-out: MIC
measure.name: MIC (µg/mL)

{"molecule": "NC(=O)Cc1ccc[n+](CC2=C(C(=O)[O-])N3C(=O)[C@@H](NC(=O)/C(=N\\O)c4csc(N)n4)[C@H]3SC2)c1 [Compound (7)]", "reading.unit": "µg/mL", "readout.value": 0.2}
{"molecule": "CNC(=O)c1ccc[n+](CC2=C(C(=O)[O-])N3C(=O)[C@@H](NC(=O)/C(=N\\O)c4csc(N)n4)[C@H]3SC2)c1 [Compound (6)]", "reading.unit": "µg/mL", "readout.value": 0.39}
{"molecule": "CNc1nc(-c2cc[n+](CC3=C(C(=O)[O-])N4C(=O)[C@@H](NC(=O)/C(=N\\O)c5csc(N)n5)[C@H]4SC3)cc2)cs1 [Compound (12)]", "reading.unit": "µg/mL", "readout.value": 0.39}
{"molecule": "CN(C)CCn1nnnc1SCC1=C(C(=O)O)N2C(=O)[C@@H](NC(=O)Cc3csc(N)n3)[C@H]2SC1 [CTM, cefotiam, reference compound]", "reading.unit": "µg/mL", "readout.value": 0.78}
{"molecule": "Cc1nnc(SCC2=C(C(=O)O)N3C(=O)[C@@H](NC(=O)Cn4cnnn4)[C@H]3SC2)s1 [CEZ, cefazolin, reference compound]", "reading.unit": "µg/mL", "readout.value": 3.13}

###

Test system: Staphylococcus aureus 209P JC-1
Test: MIC against standard strains (Test Example 1)
Assay type: cell-based
Conditions: Muller-Hinton agar, 37°C overnight
Where a name gives a salt, the structure may show the parent alone.

{"molecule": "CN(C)CCn1nnnc1SCC1=C(C(=O)O)N2C(=O)[C@@H](NC(=O)Cc3csc(N)n3)[C@H]2SC1 [CTM, cefotiam, reference compound]", "measured.target": "Staphylococcus aureus 209P JC-1", "MIC": "0.2 µg/mL"}
{"molecule": "NC(=O)Nc1ccc[n+](CC2=C(C(=O)[O-])N3C(=O)[C@@H](NC(=O)/C(=N\\O)c4csc(N)n4)[C@H]3SC2)c1", "measured.target": "Staphylococcus aureus 209P JC-1", "MIC": "0.1 µg/mL"}
{"molecule": "CO[C@@]1(NC(=O)CSC(F)F)C(=O)N2C(C(=O)O)=C(CSc3nnnn3CCO)CO[C@@H]21 [FMOX, flomoxef, reference compound]", "measured.target": "Staphylococcus aureus 209P JC-1", "MIC": "0.39 µg/mL"}
{"molecule": "NC(=O)c1ccc[n+](CC2=C(C(=O)[O-])N3C(=O)[C@@H](NC(=O)/C(=N\\O)c4csc(N)n4)[C@H]3SC2)c1", "measured.target": "Staphylococcus aureus 209P JC-1", "MIC": "0.2 µg/mL"}
{"molecule": "Nc1ccc[n+](CC2=C(C(=O)[O-])N3C(=O)[C@@H](NC(=O)/C(=N\\O)c4csc(N)n4)[C@H]3SC2)c1 [Compound (3), hydrochloride]", "measured.target": "Staphylococcus aureus 209P JC-1", "MIC": "0.2 µg/mL"}
{"molecule": "Nc1nc(/C(=N/O)C(=O)N[C@@H]2C(=O)N3C(C(=O)[O-])=C(C[n+]4ccc(-c5csc(N)n5)cc4)CS[C@H]23)cs1", "measured.target": "Staphylococcus aureus 209P JC-1", "MIC": "0.2 µg/mL"}
{"molecule": "CC(=O)c1ccc[n+](CC2=C(C(=O)[O-])N3C(=O)[C@@H](NC(=O)/C(=N\\O)c4csc(N)n4)[C@H]3SC2)c1", "measured.target": "Staphylococcus aureus 209P JC-1", "MIC": "0.2 µg/mL"}
